# Tgt: Poly [ADP-ribose] polymerase 1 (Homo sapiens, UniProt P09874)
# Sequence (P09874 whole entry): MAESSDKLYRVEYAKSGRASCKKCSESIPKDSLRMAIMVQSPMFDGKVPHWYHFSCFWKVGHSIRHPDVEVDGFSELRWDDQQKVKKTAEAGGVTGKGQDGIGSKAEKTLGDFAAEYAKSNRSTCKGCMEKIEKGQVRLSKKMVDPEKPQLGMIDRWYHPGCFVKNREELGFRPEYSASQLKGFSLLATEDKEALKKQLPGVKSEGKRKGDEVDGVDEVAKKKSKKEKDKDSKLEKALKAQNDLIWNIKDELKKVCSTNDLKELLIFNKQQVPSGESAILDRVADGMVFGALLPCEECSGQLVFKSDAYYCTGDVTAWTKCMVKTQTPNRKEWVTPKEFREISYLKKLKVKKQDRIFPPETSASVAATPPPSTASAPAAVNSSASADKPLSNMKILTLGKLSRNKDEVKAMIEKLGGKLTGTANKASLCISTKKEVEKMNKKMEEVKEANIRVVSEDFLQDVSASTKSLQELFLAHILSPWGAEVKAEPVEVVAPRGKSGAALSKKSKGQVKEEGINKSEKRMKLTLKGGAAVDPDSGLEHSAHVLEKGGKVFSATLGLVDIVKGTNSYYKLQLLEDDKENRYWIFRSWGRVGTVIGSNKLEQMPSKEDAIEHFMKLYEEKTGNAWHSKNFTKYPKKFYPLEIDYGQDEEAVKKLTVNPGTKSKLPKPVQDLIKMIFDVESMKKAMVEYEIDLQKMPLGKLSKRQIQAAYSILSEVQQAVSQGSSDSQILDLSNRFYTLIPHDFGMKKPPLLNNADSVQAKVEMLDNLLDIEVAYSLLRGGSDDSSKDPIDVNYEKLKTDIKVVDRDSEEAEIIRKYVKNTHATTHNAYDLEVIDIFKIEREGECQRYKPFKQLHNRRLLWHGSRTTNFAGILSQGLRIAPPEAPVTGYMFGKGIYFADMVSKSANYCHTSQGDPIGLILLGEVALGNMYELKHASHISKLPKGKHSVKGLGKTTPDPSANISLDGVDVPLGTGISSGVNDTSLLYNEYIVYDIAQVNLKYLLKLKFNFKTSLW
# Test Name: Inhibition of human PARP1 using NAD+ as substrate at 5 nM incubated for 1 hr by ELISA relative to control
Quantity Name: inhibition (%)

As a guide, the following entries are already answered.
{"Compound": "O=C1NCCc2c(-c3ccc(CN4CCn5c(nnc5C(F)(F)F)C4)cc3)[nH]c3cc(F)cc1c23", "Reported Value": 69.1}
{"Compound": "O=C1NCCc2c(-c3ccc(CN4CCC(F)(F)CC4)cc3)[nH]c3cc(F)cc1c23", "Reported Value": 68.8}
{"Compound": "CCOC(=O)C1CCCN(Cc2ccc(-c3[nH]c4cc(F)cc5c4c3CCNC5=O)cc2)C1 (stereo not given)", "Reported Value": 86.5}
{"Compound": "Cc1cc(N2CCN(Cc3ccc(-c4[nH]c5cc(F)cc6c5c4CCNC6=O)cc3)CC2)n(-c2ccccc2)n1", "Reported Value": 47.2}
{"Compound": "O=C1NCCc2c(-c3cccc(CN4CCC(F)(F)CC4)c3)[nH]c3cc(F)cc1c23", "Reported Value": 38.4}

[I] CC(=O)N1CCN(Cc2ccc(-c3[nH]c4cc(F)cc5c4c3CCNC5=O)cc2)CC1
[II] C[C@@H]1CN(Cc2cccc(-c3[nH]c4cc(F)cc5c4c3CCNC5=O)c2)CCN1C(=O)OC(C)(C)C
Consider entries I and II . Which has the numerically lower inhibition? Mark your selection by writing its label.
II

[A] CC(C)(C)OC(=O)NC1CCN(Cc2ccc(-c3[nH]c4cc(F)cc5c4c3CCNC5=O)cc2)CC1
[B] CC(C)N1CCN(Cc2cccc(-c3[nH]c4cc(F)cc5c4c3CCNC5=O)c2)CC1
Given the listed records, identify the one among A and B with higher inhibition. Answer format: the label of the selected item.
A

###

# Tgt: Poly [ADP-ribose] polymerase 2 (Homo sapiens, UniProt Q9UGN5)
# Sequence (Q9UGN5 whole entry): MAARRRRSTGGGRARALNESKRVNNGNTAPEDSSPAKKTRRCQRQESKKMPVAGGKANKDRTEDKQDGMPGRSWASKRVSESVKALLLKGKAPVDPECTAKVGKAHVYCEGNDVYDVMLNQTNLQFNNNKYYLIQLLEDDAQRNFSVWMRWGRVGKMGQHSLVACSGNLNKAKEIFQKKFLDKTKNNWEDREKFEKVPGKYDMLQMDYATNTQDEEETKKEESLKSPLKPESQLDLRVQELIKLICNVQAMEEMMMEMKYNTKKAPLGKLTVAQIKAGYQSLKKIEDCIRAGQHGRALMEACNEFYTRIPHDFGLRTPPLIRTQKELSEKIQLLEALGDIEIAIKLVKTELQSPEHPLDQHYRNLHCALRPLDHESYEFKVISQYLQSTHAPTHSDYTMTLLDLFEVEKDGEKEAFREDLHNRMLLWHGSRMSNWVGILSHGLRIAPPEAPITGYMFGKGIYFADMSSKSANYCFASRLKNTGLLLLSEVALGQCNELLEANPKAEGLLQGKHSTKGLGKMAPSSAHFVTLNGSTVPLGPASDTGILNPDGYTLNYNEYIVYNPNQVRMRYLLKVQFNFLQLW
# Test Name: Inhibition of human PARP2 using NAD+ as substrate at 5 nM incubated for 1 hr by ELISA relative to control
Quantity Name: inhibition (%)

Some solved entries appear below for comparison.
{"Compound": "COC(=O)c1ccc(-c2[nH]c3cc(F)cc4c3c2CCNC4=O)cc1", "Tgt": "Poly [ADP-ribose] polymerase 2 (Homo sapiens, UniProt Q9UGN5)", "Quantity Name": "inhibition", "Reported Value": 50.1}
{"Compound": "CCOC(=O)C1CCCN(Cc2ccc(-c3[nH]c4cc(F)cc5c4c3CCNC5=O)cc2)C1 (centres undefined)", "Tgt": "Poly [ADP-ribose] polymerase 2 (Homo sapiens, UniProt Q9UGN5)", "Quantity Name": "inhibition", "Reported Value": 36.3}
{"Compound": "CC(C)N1CCN(Cc2cccc(-c3[nH]c4cc(F)cc5c4c3CCNC5=O)c2)CC1", "Tgt": "Poly [ADP-ribose] polymerase 2 (Homo sapiens, UniProt Q9UGN5)", "Quantity Name": "inhibition", "Reported Value": 29}
{"Compound": "CC1(NC(=O)OC(C)(C)C)CCN(Cc2cccc(-c3[nH]c4cc(F)cc5c4c3CCNC5=O)c2)CC1", "Tgt": "Poly [ADP-ribose] polymerase 2 (Homo sapiens, UniProt Q9UGN5)", "Quantity Name": "inhibition", "Reported Value": 41.8}
{"Compound": "O=C1NCCc2c(-c3ccc(CN4CCN(c5cccc(C(F)(F)F)c5)CC4)cc3)[nH]c3cc(F)cc1c23", "Tgt": "Poly [ADP-ribose] polymerase 2 (Homo sapiens, UniProt Q9UGN5)", "Quantity Name": "inhibition", "Reported Value": 17.3}

[1] CC(C)(C)OC(=O)N1CCN(Cc2ccc(-c3[nH]c4cc(F)cc5c4c3CCNC5=O)cc2)CC1
[2] O=C1NCCc2c(-c3ccc(N4CCOCC4)cc3)[nH]c3cc(F)cc1c23
From the recorded data, which exceeds the other in inhibition: 1 or 2 ? // return label of chosen record
2
(2: 54.2%, 1: 33.8%)
